In this section, each of the compounds is paired with its reported CC50 at 24 h.
- Assay Comment: Cytotoxicity, Alamar Blue assay
- Type: cell-based
- Assay Setup: mouse, J774.A1 macrophage cell line (ATCC TIB-67), J774.A1, 24 h, mean ± SD, >100 if inhibition did not reach 50% at the highest concentration, read-out: Murine Macrophages CC50

Param item = C[C@H]1[C@H](C)CC[C@]2(C(=O)O)CC[C@]3(C)C(=CC[C@@H]4[C@@]5(C)CC[C@H](O)C(C)(C)[C@@H]5CC[C@]43C)[C@H]12 ; retrieve measured CC50 at 24 h.
17.7 µM

Param item = C[C@@H]1CC[C@]2(C(=O)O)CC[C@]3(C)C(=CCC4[C@@]5(C)CCC(=O)C(C)(C)C5CC[C@]43C)C2[C@H]1C (stereo partly drawn) ; retrieve measured CC50 at 24 h.
> 100 µM

Param item = [H]/N=C(\N/C(=N/[H])NCCCCCCNC(=N)NC(=N)Nc1ccc(Cl)cc1)Nc1ccc(Cl)cc1 [Chlorhexidine, reference compound] ; retrieve measured CC50 at 24 h.
7.4 µM

Param item = CC(=O)O[C@H]1CC[C@@]2(C)C(CC[C@]3(C)C2CC=C2C4[C@@H](C)[C@H](C)CC[C@]4(C(=O)O)CC[C@]23C)C1(C)C (stereo partly drawn) ; retrieve measured CC50 at 24 h.
93.2 µM

Param item = COC(=O)[C@]12CC[C@@H](C)[C@H](C)C1C1=CCC3[C@@]4(C)CC[C@H](OC)C(C)(C)C4CC[C@@]3(C)[C@]1(C)CC2 (stereo partly drawn) ; retrieve measured CC50 at 24 h.
> 100 µM

Param item = COC(=O)[C@]12CC[C@@H](C)[C@H](C)C1C1=CCC3[C@@]4(C)CC[C@H](OC(=O)c5ccccc5)C(C)(C)C4CC[C@@]3(C)[C@]1(C)CC2 (stereo partly drawn) ; retrieve measured CC50 at 24 h.
> 100 µM

Param item = COC(=O)[C@]12CC[C@@H](C)[C@H](C)C1C1=CCC3[C@@]4(C)CC[C@H](OC(=O)c5ccc([N+](=O)[O-])cc5)C(C)(C)C4CC[C@@]3(C)[C@]1(C)CC2 (stereo partly drawn) ; retrieve measured CC50 at 24 h.
> 100 µM

Param item = COC(=O)[C@]12CC[C@@H](C)[C@H](C)C1C1=CCC3[C@@]4(C)CC[C@H](OC(C)=O)C(C)(C)C4CC[C@@]3(C)[C@]1(C)CC2 (stereo partly drawn) ; retrieve measured CC50 at 24 h.
> 100 µM

Param item = COC(=O)[C@]12CC[C@@H](C)[C@H](C)C1C1=CCC3[C@@]4(C)CC[C@H](O)C(C)(C)C4CC[C@@]3(C)[C@]1(C)CC2 (stereo partly drawn) ; retrieve measured CC50 at 24 h.
26.3 µM
